biological target: UniProt P25440; assay: BRD2 inhibition assay; assay type: biochemical
Sequence (P25440 whole entry): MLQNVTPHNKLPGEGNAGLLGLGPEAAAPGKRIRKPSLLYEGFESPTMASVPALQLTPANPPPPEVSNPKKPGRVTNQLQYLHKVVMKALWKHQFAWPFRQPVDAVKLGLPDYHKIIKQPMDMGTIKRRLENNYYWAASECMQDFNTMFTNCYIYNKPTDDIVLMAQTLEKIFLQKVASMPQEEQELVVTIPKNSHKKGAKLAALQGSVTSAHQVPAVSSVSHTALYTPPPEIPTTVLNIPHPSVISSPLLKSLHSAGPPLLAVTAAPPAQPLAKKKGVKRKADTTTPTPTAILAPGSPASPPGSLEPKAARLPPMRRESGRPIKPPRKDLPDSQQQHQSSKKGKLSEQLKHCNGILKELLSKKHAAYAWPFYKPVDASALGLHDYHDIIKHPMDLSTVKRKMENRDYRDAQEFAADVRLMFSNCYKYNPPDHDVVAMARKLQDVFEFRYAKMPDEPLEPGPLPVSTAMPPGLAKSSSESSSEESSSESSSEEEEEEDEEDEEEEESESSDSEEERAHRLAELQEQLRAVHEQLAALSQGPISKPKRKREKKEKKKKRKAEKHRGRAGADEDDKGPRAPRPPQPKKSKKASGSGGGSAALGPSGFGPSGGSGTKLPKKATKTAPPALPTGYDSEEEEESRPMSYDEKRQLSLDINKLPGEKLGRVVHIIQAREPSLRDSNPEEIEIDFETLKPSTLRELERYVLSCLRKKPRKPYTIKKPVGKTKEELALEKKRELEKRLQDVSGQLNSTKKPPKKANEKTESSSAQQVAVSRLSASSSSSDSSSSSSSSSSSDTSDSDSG
Give pIC50 for every item shown.
Schema: pIC50 number; meaning minus log10 of the concentration expressed in molar units.

Tell me pIC50 reported for Cc1sc2c(c1C)C(c1ccc(Cl)cc1)=N[C@@H](CC(=O)OC1COC1)c1nnc(C)n1-2
6.80

State, in one line, measured pIC50 of Cc1sc2c(c1C)C(c1ccc(Cl)cc1)=N[C@@H](CC(=O)OC1CCC1)c1nnc(C)n1-2
6.79

Look up and report measured pIC50 for this entry: CCCCOC(=O)C[C@@H]1N=C(c2ccc(Cl)cc2)c2c(sc(C)c2C)-n2c(C)nnc21
6.68

Read off the recorded pIC50 for Cc1sc2c(c1C)C(c1ccc(Cl)cc1)=N[C@@H](CC(=O)OC1CCCC1)c1nnc(C)n1-2
6.76

Please supply the value of reported pIC50 for the item Cc1sc2c(c1C)C(c1ccc(Cl)cc1)=N[C@@H](CC(=O)OC1CC1)c1nnc(C)n1-2
6.79

###

Please go through the items and note down their solubility kinetic at 90 min.
Test: Kinetic solubility
Type: physicochemical
Settings: aqueous buffer, kinetic from dmso stock, PBS pH 7.4, 37 °C, 100 µM nominal
Method: Test compound (10 mM, 100% DMSO) was diluted separately into aqueous buffer (100 µM; PBS pH 7.4) and DMSO at various concentrations (1000, 100, 10, 1, 0.1 µM). The solutions were then incubated at 37 °C for 90 min and centrifuged (16000xg, 5 min). An aliquot of each supernatant was analyzed by UV/Vis (if possible) or LC-MS/MS. A standard curve was made by plotting the known amount of analyte per standard in DMSO vs. absorbance or chromatographic peak area. […]
Answer with a number only, understood to be in µM.

Answer with reported solubility kinetic at 90 min of Cc1sc2c(c1C)C(c1ccc(Cl)cc1)=N[C@@H](CC(=O)NCC(=O)OC(C)C)c1nnc(C)n1-2
91.1

Please give measured solubility kinetic at 90 min of the following entry: Cc1sc2c(c1C)C(c1ccc(Cl)cc1)=N[C@@H](CC(=O)OC1CCC1)c1nnc(C)n1-2
63.7

###

assay: Liver microsome stability assay; type: in vitro ADME; settings: pH 7.4; human liver microsomes 0.5 mg/mL, NADPH, 37 °C, up to 120 min; read-out: Microsomal Stability t1/2
Give half-life at 1 µM for every item shown.

Supply half-life at 1 µM value. Item: Cc1sc2c(c1C)C(c1ccc(Cl)cc1)=N[C@@H](CC(=O)OC1CC1)c1nnc(C)n1-2
61 min

# return recorded half-life at 1 µM for input Cc1sc2c(c1C)C(c1ccc(Cl)cc1)=N[C@@H](CC(=O)NO)c1nnc(C)n1-2
> 120 min

Note half-life at 1 µM for the compound shown: Cc1sc2c(c1C)C(c1ccc(Cl)cc1)=N[C@@H](CC(=O)OC1CCC1)c1nnc(C)n1-2
27 min

Please indicate half-life at 1 µM recorded for Cc1sc2c(c1C)C(c1ccc(Cl)cc1)=N[C@@H](CC(=O)N1CCCC1)c1nnc(C)n1-2
62 min

Give a short answer stating reported half-life at 1 µM for Cc1sc2c(c1C)C(c1ccc(Cl)cc1)=N[C@@H](CC(=O)NCC(=O)OC(C)C)c1nnc(C)n1-2 .
12 min

# return recorded half-life at 1 µM for entry CCCCOC(=O)C[C@@H]1N=C(c2ccc(Cl)cc2)c2c(sc(C)c2C)-n2c(C)nnc21
14 min

Give reported half-life at 1 µM value for Cc1sc2c(c1C)C(c1ccc(Cl)cc1)=NC(CC(=O)NC(C)C(=O)OC(C)C)c1nnc(C)n1-2 (stereo not shown)
13 min
